Sourced from ChEMBL document CHEMBL1159330

Test system: HL-60
Assay: Cytotoxicity against human HL60 cells after 72 hrs by MTT assay
Assay type: functional, cell-based
Conditions: HL-60, 72 h
Entries and their measured IC50 follow.
quantity_measured: IC50 (µg/mL)

[[record]]
compound = "COc1cc(CC[C@@H](O)C[C@@H](CCc2ccc(O)c(OC)c2)O[C@@H]2O[C@H](CO)[C@@H](O)[C@H](O)[C@H]2O)ccc1O"
quantity_measured = "IC50"
measurement_unit = "µg/mL"
value_relation_sign = ">"
result_number = 10

[[record]]
compound = "COc1ccc(CC[C@@H](O)C[C@H](O)CCc2ccc(OC)c(OC)c2)cc1"
quantity_measured = "IC50"
measurement_unit = "µg/mL"
value_relation_sign = "="
result_number = 5.5

[[record]]
compound = "Oc1ccc(CC[C@@H](O)C[C@H](O)CCc2ccc(O)c(O)c2)cc1"
quantity_measured = "IC50"
measurement_unit = "µg/mL"
value_relation_sign = "="
result_number = 2.1

[[record]]
compound = "Oc1ccc(CC[C@@H](O)C[C@H](O)CCc2ccc(O)c(O)c2)cc1O"
quantity_measured = "IC50"
measurement_unit = "µg/mL"
value_relation_sign = "="
result_number = 1.8

[[record]]
compound = "COc1cc([C@@H]2c3cc4c(cc3[C@@H](O[C@@H]3O[C@@H]5CO[C@@H](C)O[C@H]5[C@H](O)[C@H]3O)[C@H]3COC(=O)[C@H]23)OCO4)cc(OC)c1O [ETOPOSIDE]"
quantity_measured = "IC50"
measurement_unit = "µg/mL"
value_relation_sign = "="
result_number = 0.2

[[record]]
compound = "COc1cc(CC[C@@H](O)C[C@H](O)CCc2ccc(O)c(O)c2)ccc1O"
quantity_measured = "IC50"
measurement_unit = "µg/mL"
value_relation_sign = "="
result_number = 4.1

[[record]]
compound = "COc1ccc(CC[C@@H](O)C[C@H](O)CCc2ccc(OC)c(OC)c2)cc1OC"
quantity_measured = "IC50"
measurement_unit = "µg/mL"
value_relation_sign = "="
result_number = 4.9

[[record]]
compound = "OC[C@H]1O[C@@H](O[C@H](CCc2ccc(O)c(O)c2)C[C@H](O)CCc2ccc(O)cc2)[C@H](O)[C@@H](O)[C@@H]1O"
quantity_measured = "IC50"
measurement_unit = "µg/mL"
value_relation_sign = "="
result_number = 6.2

[[record]]
compound = "COc1cc(CC[C@H](C[C@H](O)CCc2ccc(O)c(O)c2)O[C@@H]2O[C@H](CO)[C@@H](O)[C@H](O)[C@H]2O)ccc1O"
quantity_measured = "IC50"
measurement_unit = "µg/mL"
value_relation_sign = "="
result_number = 4.5

[[record]]
compound = "OC[C@H]1O[C@@H](O[C@H](CCc2ccc(O)cc2)C[C@H](O)CCc2ccc(O)cc2)[C@H](O)[C@@H](O)[C@@H]1O"
quantity_measured = "IC50"
measurement_unit = "µg/mL"
value_relation_sign = ">"
result_number = 10

[[record]]
compound = "OC[C@H]1O[C@@H](O[C@H](CCc2ccc(O)c(O)c2)C[C@H](O)CCc2ccc(O)c(O)c2)[C@H](O)[C@@H](O)[C@@H]1O"
quantity_measured = "IC50"
measurement_unit = "µg/mL"
value_relation_sign = "="
result_number = 3

[[record]]
compound = "COc1cc(CC[C@H](C[C@H](O)CCc2ccc(O)cc2)O[C@@H]2O[C@H](CO)[C@@H](O)[C@H](O)[C@H]2O)ccc1O"
quantity_measured = "IC50"
measurement_unit = "µg/mL"
value_relation_sign = ">"
result_number = 10

[[record]]
compound = "COc1ccc(CC[C@@H](O)C[C@H](O)CCc2ccc(OC)cc2)cc1"
quantity_measured = "IC50"
measurement_unit = "µg/mL"
value_relation_sign = "="
result_number = 6.4

[[record]]
compound = "COc1cc(CC[C@@H](O)C[C@H](O)CCc2ccc(O)c(OC)c2)ccc1O"
quantity_measured = "IC50"
measurement_unit = "µg/mL"
value_relation_sign = ">"
result_number = 10

[[record]]
compound = "Oc1ccc(CC[C@@H](O)C[C@H](O)CCc2ccc(O)cc2)cc1 [(+)-HANNOKINOL]"
quantity_measured = "IC50"
measurement_unit = "µg/mL"
value_relation_sign = ">"
result_number = 10

[[record]]
compound = "OC[C@H]1O[C@@H](O[C@H](CCc2ccc(O)cc2)C[C@H](O)CCc2ccc(O)c(O)c2)[C@H](O)[C@@H](O)[C@@H]1O"
quantity_measured = "IC50"
measurement_unit = "µg/mL"
value_relation_sign = "="
result_number = 5.5

[[record]]
compound = "COc1cc(CC[C@@H](O)C[C@H](O)CCc2ccc(O)cc2)ccc1O"
quantity_measured = "IC50"
measurement_unit = "µg/mL"
value_relation_sign = ">"
result_number = 10

